Tested on: C57BL/6 mice, Adenocarcinoma 755 sc, tumor weight T/C
Assay: NCI In Vivo Anticancer Drug Screen. Data for tumor model Adenocarcinoma 755 (subcutaneous) in C57BL/6 mice
Conditions: endpoint: mean tumor weight; dose: 10.0 mg/kg/injection; schedule: Q02DX006 (ip); vehicle: other; higher = larger tumour
Experimental: The antitumor activity of compounds was measured in mice bearing transplantable tumors. Survival or tumor size were measured and the results are expressed as the measurement made in the treated group (T) divided by the measurement made in the vehicle treated control group (C). The tumor model used in this assay is Adenocarcinoma 755 (subcutaneous) in C57BL/6 mice
measured_property: T/C

Worked cases, answers included:
chem_smiles: Nc1ncnc2[nH]ncc12
T/C: 28 % of control

chem_smiles: CS(=O)(=O)OCCCCOS(C)(=O)=O
T/C: 59 % of control

chem_smiles: Clc1cc(N2CC2)nc(N2CC2)n1
T/C: 18 % of control

Kindly consider the entry below.
For the molecule shown here, S=c1nc[nH]c2nc[nH]c12 , give the reported T/C.
2 % of control

* * *

system: C57BL/6 mice, Adenocarcinoma 755 sc, tumor weight T/C; test: NCI In Vivo Anticancer Drug Screen. Data for tumor model Adenocarcinoma 755 (subcutaneous) in C57BL/6 mice; conditions: endpoint: mean tumor weight; dose: 300.0 mg/kg/injection; schedule: Q01DX011 (ip); vehicle: saline; higher = larger tumour
Listed here: items and their measured T/C.

Guide cases for T/C, answers given:
chem_smiles: c1ccc2nc(-c3cc4ccccc4s3)ccc2c1
measured_property: T/C
test_result: 11 % of control

chem_smiles: CCOc1ccccc1C(=O)Nc1ccc(Br)cc1
measured_property: T/C
test_result: 75 % of control

chem_smiles: Cn1cnc2[nH]cnc(=S)c21
measured_property: T/C
test_result: 30 % of control

Would you kindly look at the next entry?
Reported T/C, compound CCOC(N)=O : ____
38 % of control

* * *

Quick reference: T/C of the listed items.
system: C57BL/6 mice, Adenocarcinoma 755 sc, tumor weight T/C; experiment: NCI In Vivo Anticancer Drug Screen. Data for tumor model Adenocarcinoma 755 (subcutaneous) in C57BL/6 mice; conditions: endpoint: mean tumor weight; dose: 150.0 mg/kg/injection; schedule: Q01DX011 (ip); vehicle: saline; higher = larger tumour

molecule: O=c1[nH]cnc2n[nH]nc12
target_desc: C57BL/6 mice, Adenocarcinoma 755 sc, tumor weight T/C
T/C: 55 % of control

molecule: Cn1cnc([N+](=O)[O-])c1SCc1ccccc1
target_desc: C57BL/6 mice, Adenocarcinoma 755 sc, tumor weight T/C
T/C: 54 % of control

molecule: CCC(C)N1C(=O)CCC1=O (configuration not stated)
target_desc: C57BL/6 mice, Adenocarcinoma 755 sc, tumor weight T/C
T/C: 95 % of control

molecule: O=c1[nH]c(=O)c2n[nH]nc2[nH]1
target_desc: C57BL/6 mice, Adenocarcinoma 755 sc, tumor weight T/C
T/C: 115 % of control

molecule: Clc1ccccc1CSc1ncnc2nc[nH]c12
target_desc: C57BL/6 mice, Adenocarcinoma 755 sc, tumor weight T/C
T/C: 1 % of control

So what does the record say about T/C for CCSCCC(N)C(=O)O (configuration not stated) ?
72 % of control

Given the entry CCOc1ccccc1C(=O)Nc1ccc(Br)cc1 , report its measured T/C.
98 % of control

* * *

System: C57BL/6 mice, Adenocarcinoma 755 sc, tumor weight T/C
Test: NCI In Vivo Anticancer Drug Screen. Data for tumor model Adenocarcinoma 755 (subcutaneous) in C57BL/6 mice
Conditions: endpoint: mean tumor weight; dose: 125.0 mg/kg/injection; schedule: Q01DX011 (ip); vehicle: saline; higher = larger tumour
Procedure: The antitumor activity of compounds was measured in mice bearing transplantable tumors. Survival or tumor size were measured and the results are expressed as the measurement made in the treated group (T) divided by the measurement made in the vehicle treated control group (C). The tumor model used in this assay is Adenocarcinoma 755 (subcutaneous) in C57BL/6 mice
Overview of reported T/C across a group of compounds:

Known T/C results, listed for orientation:
chem_smiles: Cc1ncc(CO)c(C)c1O
T/C: 47 % of control
//
chem_smiles: Cn1cnc([N+](=O)[O-])c1SCc1ccccc1
T/C: 33 % of control
//
chem_smiles: CNC=O
T/C: 98 % of control
//
chem_smiles: O=[N+]([O-])c1ccc2c(c1)Cc1c-2cc(Br)c(O)c1Br
T/C: 58 % of control
//
chem_smiles: CCCCNc1nc(N(C)C)nc2nc[nH]c12
T/C: 47 % of control

Query for C57BL/6 mice, Adenocarcinoma 755 sc, tumor weight T/C: what T/C does the record show for Nc1c(Br)cc2c(c1Br)Cc1cc([N+](=O)[O-])ccc1-2 ?
17 % of control

* * *

test system: C57BL/6 mice, Adenocarcinoma 755 sc, tumor weight T/C; assay: NCI In Vivo Anticancer Drug Screen. Data for tumor model Adenocarcinoma 755 (subcutaneous) in C57BL/6 mice; conditions: endpoint: mean tumor weight; dose: 40.0 mg/kg/injection; schedule: Q01DX011 (ip); vehicle: saline; higher = larger tumour
measured_property: T/C

compound: CCCCNc1ncnc2c1cnn2C
T/C: 3 % of control
--
compound: Nc1[nH]c(=O)nc2c1ncn2C1OC(CO)C(O)C1O (stereo not drawn)
T/C: 58 % of control
--
compound: CSc1ncnc2nc[nH]c12
T/C: 3 % of control
--
compound: Nc1ncnc2n[nH]nc12
T/C: 46 % of control

Given CCN(CC)c1ncnc2[nH]ncc12 , state its recorded T/C.
25 % of control

Please report the recorded T/C for Clc1nc(Cl)c2[nH]cnc2n1 .
82 % of control

Entry O=C(O)c1cc(=O)[nH]c(=S)[nH]1 : reported T/C = ?
78 % of control

Any idea what its T/C is? The compound is c1ccc(CNc2ncnc3[nH]ncc23)cc1
4 % of control

* * *

tested on: C57BL/6 mice, Adenocarcinoma 755 sc, tumor weight T/C; experiment: NCI In Vivo Anticancer Drug Screen. Data for tumor model Adenocarcinoma 755 (subcutaneous) in C57BL/6 mice; details: endpoint: mean tumor weight; dose: 30.0 mg/kg/injection; schedule: Q01DX011 (ip); vehicle: saline; higher = larger tumour
measured_property: T/C

See these solved cases before continuing.
compound: c1ccc(CNc2ncnc3[nH]ncc23)cc1
target_desc: C57BL/6 mice, Adenocarcinoma 755 sc, tumor weight T/C
T/C: 25 % of control

compound: O=C(O)c1cc(=O)[nH]c(=S)[nH]1
target_desc: C57BL/6 mice, Adenocarcinoma 755 sc, tumor weight T/C
T/C: 121 % of control

compound: CN(C)c1ncnc2c1ncn2C1OC(CO)C(N)C1O (configuration not stated)
target_desc: C57BL/6 mice, Adenocarcinoma 755 sc, tumor weight T/C
T/C: 13 % of control

compound: CCCCn1cnc2c(SSc3ncnc4c3ncn4CCCC)ncnc21
target_desc: C57BL/6 mice, Adenocarcinoma 755 sc, tumor weight T/C
T/C: 6 % of control

compound: Nc1[nH]c(=O)nc2c1ncn2C1OC(CO)C(O)C1O (configuration not stated)
target_desc: C57BL/6 mice, Adenocarcinoma 755 sc, tumor weight T/C
T/C: 42 % of control

compound: NNc1ncnc2nc[nH]c12
target_desc: C57BL/6 mice, Adenocarcinoma 755 sc, tumor weight T/C
T/C: 67 % of control

Okay, next one:
Report T/C for Nc1ncnc2n[nH]nc12 please.
85 % of control

* * *

test system: C57BL/6 mice, Adenocarcinoma 755 sc, tumor weight T/C; assay: NCI In Vivo Anticancer Drug Screen. Data for tumor model Adenocarcinoma 755 (subcutaneous) in C57BL/6 mice; conditions: endpoint: mean tumor weight; dose: 25.0 mg/kg/injection; schedule: Q01DX011 (ip); vehicle: saline; higher = larger tumour
Non-standard residues stand in square brackets, D forms with d. Residues, ends and D or L forms follow the SMILES beside them. Ac5c = NC1(C(=O)O)CCCC1
measured_property: T/C

In the examples that follow, each entry is paired with its recorded T/C.
molecule: CCc1c(CC(=O)O)c2cc(C)ccc2n1Cc1ccc(Cl)cc1
T/C: 10 % of control
--
molecule: c1ccc(CNc2ncnc3[nH]ncc23)cc1
T/C: 27 % of control
--
molecule: Oc1ccc2ccccc2c1N=Nc1ccc(F)cc1
T/C: 37 % of control
--
molecule: NCC(=O)NC1(C(=O)O)CCCC1 (H-Gly-[Ac5c]-OH)
T/C: 58 % of control
--
molecule: Cn1cnc([N+](=O)[O-])c1Sc1ccccc1
T/C: 84 % of control
--
molecule: CNC=O
T/C: 92 % of control

Form entry - test system: C57BL/6 mice, Adenocarcinoma 755 sc, tumor weight T/C; read-out: T/C; molecule: O=c1[nH]c(=O)n(C2CC(O)C(CO)O2)cc1C(F)(F)F (configuration not stated)
52 % of control

* * *

Reported T/C values are given for each entry in this list.
Tested on: C57BL/6 mice, Adenocarcinoma 755 sc, tumor weight T/C
Test: NCI In Vivo Anticancer Drug Screen. Data for tumor model Adenocarcinoma 755 (subcutaneous) in C57BL/6 mice
Settings: endpoint: mean tumor weight; dose: 12.5 mg/kg/injection; schedule: Q01DX011 (ip); vehicle: saline; higher = larger tumour
Experimental: The antitumor activity of compounds was measured in mice bearing transplantable tumors. Survival or tumor size were measured and the results are expressed as the measurement made in the treated group (T) divided by the measurement made in the vehicle treated control group (C). The tumor model used in this assay is Adenocarcinoma 755 (subcutaneous) in C57BL/6 mice

Look over these answered cases.
compound: Oc1ccc2ccccc2c1N=Nc1ccc(F)cc1
measured_property: T/C
test_result: 45 % of control
--
compound: Cc1ncc(CO)c(C)c1O
measured_property: T/C
test_result: 98 % of control
--
compound: Clc1ncnc2c1ncn2Cc1ccco1
measured_property: T/C
test_result: 63 % of control
--
compound: O=P1(N(CCF)CCCl)NCCCO1 (stereo not given)
measured_property: T/C
test_result: 94 % of control

Next item in the queue.
Checklist item: T/C tested on C57BL/6 mice, Adenocarcinoma 755 sc, tumor weight T/C, entry O=c1[nH]c(=O)n(C2CC(O)C(CO)O2)cc1C(F)(F)F (stereo not given) , value?
81 % of control
